Provenance of the data: patent US20210212984A1

# experimentalTarget: human TRPA1 channel (Homo sapiens)
# Construct: expressed in transfected cells; host or cells: CHO cells
# Sequence (O75762 whole entry): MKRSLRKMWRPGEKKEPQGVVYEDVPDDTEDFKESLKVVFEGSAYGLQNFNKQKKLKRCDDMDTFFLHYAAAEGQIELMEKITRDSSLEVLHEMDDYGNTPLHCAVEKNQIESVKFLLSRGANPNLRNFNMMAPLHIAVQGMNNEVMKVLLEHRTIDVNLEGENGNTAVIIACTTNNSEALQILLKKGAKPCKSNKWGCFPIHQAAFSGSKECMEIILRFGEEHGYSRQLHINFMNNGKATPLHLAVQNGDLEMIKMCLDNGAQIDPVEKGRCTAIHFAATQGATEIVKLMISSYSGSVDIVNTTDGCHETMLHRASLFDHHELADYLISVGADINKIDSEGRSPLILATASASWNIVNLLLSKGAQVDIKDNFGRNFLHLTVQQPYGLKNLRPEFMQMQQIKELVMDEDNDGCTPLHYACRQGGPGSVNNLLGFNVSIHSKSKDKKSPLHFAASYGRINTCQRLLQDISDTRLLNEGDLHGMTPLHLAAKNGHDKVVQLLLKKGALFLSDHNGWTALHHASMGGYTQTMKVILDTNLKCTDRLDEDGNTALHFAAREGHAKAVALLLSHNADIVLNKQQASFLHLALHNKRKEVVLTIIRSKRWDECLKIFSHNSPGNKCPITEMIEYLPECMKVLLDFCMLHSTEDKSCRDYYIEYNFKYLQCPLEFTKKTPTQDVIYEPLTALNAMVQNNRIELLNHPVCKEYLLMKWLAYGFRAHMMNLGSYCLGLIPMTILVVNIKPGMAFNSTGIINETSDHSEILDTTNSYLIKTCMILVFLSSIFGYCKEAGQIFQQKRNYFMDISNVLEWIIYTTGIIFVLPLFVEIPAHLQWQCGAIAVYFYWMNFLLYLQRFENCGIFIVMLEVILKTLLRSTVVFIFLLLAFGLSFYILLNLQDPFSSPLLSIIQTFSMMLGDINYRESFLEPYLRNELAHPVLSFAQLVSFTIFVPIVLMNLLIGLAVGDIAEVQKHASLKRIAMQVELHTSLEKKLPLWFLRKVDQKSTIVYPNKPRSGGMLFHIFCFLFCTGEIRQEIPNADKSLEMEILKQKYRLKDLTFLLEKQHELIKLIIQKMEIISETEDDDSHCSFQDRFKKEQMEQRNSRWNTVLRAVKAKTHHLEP
# methodSummary: ScreenPatch assay (IonWorks Barracuda), agonist mode, TRPA1 expressed in CHO cells
# Format: cell-based
# experimentalSetup: CRC of the article alone; % of 3000 μM Mustard Oil
propertyMeasured: EMIN
Reply with the number and its unit after it.

C=CCN=C=S [Mustard Oil, Allyl isothiocyanate, reference compound] :: 1.01%
CCCCCc1cc(O)c2c(c1)OC(C)(CCC=C(C)C)C=C2 (stereo not shown) [CBC, cannabichromene] :: 0.86%
N.N.N.N.N.N.N.N.N.N.N.N.N.N.[Cl-].[Cl-].[Cl-].[Cl-].[Cl-].[Cl-].[O-2].[O-2].[Ru+3].[Ru+3].[Ru+4] [Ruthenium Red, reference compound] :: 0.00%

For the next question, use this molecule.
Request: // query EMIN value for entry CO [Methanol]
Response: 0.95%
